Would you mind telling me the reported TGI of each entry?
tested on: PC-3 prostate; assay: NCI tumour cell line growth inhibition, 48 h
The response must be a number in µM with no trailing unit.

[ask] Form field: reported TGI of `C=C1C(=O)O[C@@H]2C[C@@H](C)[C@@H]3C=CC(=O)[C@@]3(C)[C@@H](O)[C@H]12`
[reply] 7.22

[ask] Consider next the compound `CCN(C(=O)N[C@@H](Cc1ccccc1)C(=O)N[C@@H](CC(C)C)C(=O)OC)c1ccccc1` in the same way.
[reply] 97.4

[ask] Consider next the compound `O=C(NNC(=S)Nc1ccccc1)c1cc(-c2ccccc2)nc2ccccc12` in the same way.
[reply] 56.4

[ask] Consider next the compound CC1OC(OC2C(O)COC(OC3C(C)OC(OC4C(OC(=O)[C@]56CCC(C)(C)C[C@@H]5C5=CCC7[C@@]8(C)C[C@H](O)[C@H](OC9OC(CO)C(O)C(OC%10OC(CO)C(O)C(O)C%10O)C9O)[C@@](C)(CO)[C@@H]8CC[C@@]7(C)[C@]5(C)CC6)OCC(O)C4O)C(O)C3OC3OCC(O)(CO)C3O)C2O)C(O)C(O)C1O (stereo partly drawn) in the same way.
[reply] 13.7

* * *

test system: HCT-116 colon; test: NCI tumour cell line growth inhibition, 48 h; in the data active = GI50 below about 0.43 µM; inactive = the rest
Assign a class; possible classes are YES = active, NO = inactive

[ask] Name the outcome recorded for `COc1ccc(-c2nn(-c3cccc(Cl)c3)cc2-c2cc(-c3cccs3)[nH]c(=S)n2)cc1` in the assay.
[reply] NO

[ask] Consider next the molecule `CC[C@@H]1c2c(C#N)ncn2-c2cnc(Nc3ccc(C(=O)NC4CCN(C5CCN(CC6CC6)CC5)CC4)cc3OC)nc2N1C1CCCC1` in the same way.
[reply] YES

[ask] Consider next the molecule `C=C1C(=O)O[C@H]2[C@H]1CC/C(CNC(=O)/C=C/c1cc(OC)c(OC)c(OC)c1)=C\CC[C@@]1(C)O[C@@H]21` in the same way.
[reply] NO

[ask] Consider next the molecule `O=C(Oc1cccc(F)c1OC(=O)c1cccc(O)c1)c1cccc(O)c1` in the same way.
[reply] NO

[ask] Consider next the molecule O=c1[nH]nnc2c1ncn2C1OC(CO)C(O)C1O (stereo unspecified) in the same way.
[reply] NO

[ask] Consider next the molecule `CCCCCCCCNc1cc2c3c(c1)CCCN3CCC2` in the same way.
[reply] NO

[ask] Consider next the molecule `Oc1c(-c2nnc(-c3ccccc3Cl)o2)sc2nnc(-c3ccccc3)c(-c3ccccc3)c12` in the same way.
[reply] NO

[ask] Consider next the molecule C=C(C)C(O)CCC1(C)C=Cc2c(c(C)cc3c2[nH]c2ccccc23)O1 (stereo unspecified) in the same way.
[reply] NO

[ask] Consider next the molecule `C=C(CN1C(=O)CN(C)C1=O)c1ccc(C(=O)Nc2ccccc2N)cc1` in the same way.
[reply] NO

[ask] Consider next the molecule `CCN(Cc1cc(Nc2nc(C)cn3c(-c4cn[nH]c4)cnc23)sn1)C(C)(C)CO` in the same way.
[reply] YES

[ask] Consider next the molecule C/C=C(\C)C(=O)NC1=CC[C@@]2(C)C(=CCC3C2CC[C@@]2(C)C3CC[C@@H]2C(C)N(C)C)C1=O (stereo partly specified) in the same way.
[reply] NO

[ask] Consider next the molecule `C[C@]12CC[C@@H]3c4ccc(OC(=O)N(CCCl)CCCl)cc4CC[C@H]3[C@@H]1CC[C@@H]2O` in the same way.
[reply] NO

[ask] Consider next the molecule `N.N.N.N.[Co+3].[N-]=[N+]=[N-].[N-]=[N+]=[N-].[N-]=[N+]=[N-]` in the same way.
[reply] NO

[ask] Consider next the molecule C[C@@]1(C(=O)O)CCC[C@]2(C)C1CC[C@@]13CC(=O)[C@@](CO)(CC[C@]12O)C3 (stereo partly specified) in the same way.
[reply] NO

[ask] Consider next the molecule `COC12C=C/C(=C(/C(=O)OCc3cncnc3)C(=O)CCCCCCCCC3(OC)C=C/C(=C(/C(=O)OCc4cncnc4)C(=O)CCCCCCCC1)O3)O2` in the same way.
[reply] YES

[ask] Consider next the molecule C[C@]12C[C@H](CCCCCCNCCOC(=O)NCCCc3ccc(N(CCCl)CCCl)cc3)C3=C4CCC(=O)C=C4CCC3C1CC[C@@H]2O (stereo partly specified) in the same way.
[reply] NO
